Molecular target: human 17βHSD type 1 (Homo sapiens)
Construct: made in house; expressing system suspended in buffer, not purified
Sequence (P14061 1-328): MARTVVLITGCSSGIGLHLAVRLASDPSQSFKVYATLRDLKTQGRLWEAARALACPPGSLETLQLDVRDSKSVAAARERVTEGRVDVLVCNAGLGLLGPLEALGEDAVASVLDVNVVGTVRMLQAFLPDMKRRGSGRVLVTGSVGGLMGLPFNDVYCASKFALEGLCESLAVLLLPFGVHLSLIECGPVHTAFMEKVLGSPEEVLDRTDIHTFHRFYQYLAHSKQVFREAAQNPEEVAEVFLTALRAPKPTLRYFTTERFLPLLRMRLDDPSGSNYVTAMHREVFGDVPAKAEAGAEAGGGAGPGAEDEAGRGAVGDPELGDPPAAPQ
Experiment: Inhibition of recombinant 17βHSD type 1, tritium-labeled substrate conversion
Format: biochemical
Details: 0.1 μmol · l^−1 test substance; read-out: % of inhibition of human 17βHSD1
# inhibition at 0.1 µM per entry
reported property: inhibition at 0.1 µM (%)

INSERT INTO measurements (input_smiles, numeric_result) VALUES
  ('C[C@]12CC[C@@H]3c4ccc(O)cc4CC[C@H]3[C@@H]1[C@H](CCc1ccc(Cl)cc1)CC2=O', 90),
  ('C[C@]12CC[C@@H]3c4ccc(O)cc4CC[C@H]3[C@@H]1[C@H](CCc1cc(F)c(F)c(F)c1)CC2=O', 67),
  ('C[C@]12CC[C@@H]3c4ccc(O)cc4CC[C@H]3[C@@H]1[C@H](CCc1ccccc1)CC2=O', 66),
  ('C[C@]12CC[C@@H]3c4ccc(O)cc4CC[C@H]3[C@@H]1[C@H](CCc1ccc3ccccc3c1)CC2=O', 77),
  ('C=C[C@@H]1CC(=O)[C@@]2(C)CC[C@@H]3c4ccc(O)cc4CC[C@H]3[C@H]12', 79),
  ('Cc1ccc(CC[C@@H]2CC(=O)[C@@]3(C)CC[C@@H]4c5ccc(O)cc5CC[C@H]4[C@H]23)cc1', 87),
  ('CCOc1ccc(CC[C@@H]2CC(=O)[C@@]3(C)CC[C@@H]4c5ccc(O)cc5CC[C@H]4[C@H]23)cc1', 85),
  ('COc1ccc(CC[C@@H]2CC(=O)[C@@]3(C)CC[C@@H]4c5ccc(O)cc5CC[C@H]4[C@H]23)cc1', 91),
  ('C[C@]12CC[C@@H]3c4ccc(O)cc4CC[C@H]3[C@@H]1[C@H](CCc1c(F)c(F)c(F)c(F)c1F)CC2=O', 56),
  ('C[C@]12CC[C@@H]3c4ccc(O)cc4CC[C@H]3[C@@H]1[C@H](CCc1ccc(F)cc1)CC2=O', 72),
  ('COc1ccc(CC[C@@H]2CC(=O)[C@@]3(C)CC[C@@H]4c5ccc(O)cc5CC[C@H]4[C@H]23)cc1OC', 36),
  ('CC(C)(C)Oc1ccc(CC[C@@H]2CC(=O)[C@@]3(C)CC[C@@H]4c5ccc(O)cc5CC[C@H]4[C@H]23)cc1', 62),
  ('C[C@]12CC[C@@H]3c4ccc(O)cc4CC[C@H]3[C@@H]1[C@H](CCc1ccc(O)cc1)CC2=O', 72);

* * *

molecular target: UniProt P14061; experiment: 17βHSD inhibition in MCF-7 cells transfected with human 17βHSD1, E1 in supernatant; format: cell-based; design: expressed in transfected cells; host or cells: MCF-7; settings: 8 hr., 10 μmol·l^−1
reported property: E1 in supernatant, MCF-7 (pg/mL)

INSERT INTO assay_data (input_smiles, system_under_test, reported_property, numeric_result) VALUES
  ('COC(=O)c1ccc(CC[C@@H]2CC(=O)[C@@]3(C)CC[C@@H]4c5ccc(O)cc5CC[C@H]4[C@H]23)cc1', 'UniProt P14061', 'E1 in supernatant, MCF-7', 1921),
  ('C[C@]12CC[C@@H]3c4ccc(O)cc4CC[C@H]3[C@@H]1[C@H](CCc1ccc(F)cc1)CC2=O', 'UniProt P14061', 'E1 in supernatant, MCF-7', 3373),
  ('COc1ccc(CC[C@@H]2CC(=O)[C@@]3(C)CC[C@@H]4c5ccc(O)cc5CC[C@H]4[C@H]23)cc1', 'UniProt P14061', 'E1 in supernatant, MCF-7', 1300);

* * *

# IC50 per entry
target: human 17βHSD type 1 (Homo sapiens, UniProt P14061); construct: made in house; expressing system suspended in buffer, not purified; assay: Inhibition of recombinant 17βHSD type 1, tritium-labeled substrate conversion; format: biochemical; settings: read-out: 17βHSD1 IC50
reported property: IC50 (nM)

INSERT INTO results (input_smiles, numeric_result) VALUES
  ('C[C@]12CC[C@@H]3c4ccc(O)cc4CC[C@H]3[C@@H]1[C@H](CCc1ccccc1)CC2=O', 50),
  ('C[C@]12CC[C@@H]3c4ccc(O)cc4CC[C@H]3[C@@H]1[C@H](CCc1ccc(C(F)(F)F)cc1)CC2=O', 42),
  ('C[C@]12CC[C@@H]3c4ccc(O)cc4CC[C@H]3[C@@H]1[C@H](CCc1ccc(F)cc1)CC2=O', 55);
